tested on: F9; assay: Ability to induce differentiation of mouse F9 embryonal carcinoma cells.; assay type: functional; conditions: read-out: ED50 (the source's name)
Rule: measured EC50 below 500 pM gets 1; anything equal to or greater than 500 pM gets 0.

(Q) Would you kindly verify if EC50 of `CCNC(=O)\C(C(=O)O)=C(C)/C=C/C=C(C)/C=C/C1=C(C)CCCC1(C)C` is strictly less than 500 pM?
(A) 0

(Q) Consider the compound `CCNC(=O)\C(C(=O)OCC)=C(C)/C=C/C=C(C)/C=C/C1=C(C)CCCC1(C)C` . Is its EC50 strictly less than 500 pM?
(A) 0

(Q) Decide: EC50 of `CCNC(=O)/C(C(=O)OCC)=C(C)/C=C/C=C(C)/C=C/C1=C(C)CCCC1(C)C` strictly below 500 pM?
(A) 0

(Q) Problem: For the compound CC1=C(/C=C/C(C)=C/C=C/C(C)=C\C(=O)O)C(C)(C)CCC1 [ISOTRETINOIN] , is EC50 under 500 pM?
(A) 1

(Q) I wonder whether `CCOC(=O)C(C(=O)OCC)=C(C)/C=C/C=C(C)/C=C/C1=C(C)CCCC1(C)C` has EC50 below 500 pM. Can you tell?
(A) 0

(Q) Given CC1=C(/C=C/C(C)=C/C=C/C(C)=C/C(=O)O)C(C)(C)CCC1 [TRETINOIN] , is recorded EC50 strictly lower than 500 pM?
(A) 1

(Q) Decide: EC50 of `CCOC(=O)/C(C(=O)O)=C(C)/C=C/C=C(C)/C=C/C1=C(C)CCCC1(C)C` strictly below 500 pM?
(A) 0

// provenance: ChEMBL document CHEMBL1124126
